Here, each record is paired with measured melting point data.

Consider the following illustrative entries.
{"molecule": "CC(=O)Nc1ccc(-n2nc3cc(Cl)c(Cl)cc3n2)cc1", "observable": "melting point", "value": "> 290 °C"}
{"molecule": "CC(=O)N(C(C)=O)c1ccc(-n2nc3cc(Cl)c(Cl)cc3n2)cc1", "observable": "melting point", "value": "224 to 226 °C"}
{"molecule": "O=C(Nc1ccc(-n2nnc3cc(Cl)c(Cl)cc32)cc1)c1ccc(Cl)cc1", "observable": "melting point", "value": "234 to 236 °C"}
{"molecule": "O=C(NCc1ccccc1)Nc1ccc(-n2nc3cc(Cl)c(Cl)cc3n2)cc1 [10j]", "observable": "melting point", "value": "> 290 °C"}
{"molecule": "COc1ccc(NC(=O)Nc2ccc(-n3nc4cc(Cl)c(Cl)cc4n3)cc2)cc1 [10g]", "observable": "melting point", "value": "> 290 °C"}

Please report the recorded melting point for CCCNC(=O)Nc1ccc(-n2nc3cc(Cl)c(Cl)cc3n2)cc1 [10b] .
> 300 °C
